Data provenance: patent US7452876B2

Would you mind telling me the reported pIC50 of each entry?
# TGT: HCV NS5B RdRp genotype 1b (Hepatitis C virus genotype 1b)
# Construct: The protein was expressed with an 18 amino acid C-terminal truncation to enhance the solubility
# Sequence (Q9WMX2 2420-2992): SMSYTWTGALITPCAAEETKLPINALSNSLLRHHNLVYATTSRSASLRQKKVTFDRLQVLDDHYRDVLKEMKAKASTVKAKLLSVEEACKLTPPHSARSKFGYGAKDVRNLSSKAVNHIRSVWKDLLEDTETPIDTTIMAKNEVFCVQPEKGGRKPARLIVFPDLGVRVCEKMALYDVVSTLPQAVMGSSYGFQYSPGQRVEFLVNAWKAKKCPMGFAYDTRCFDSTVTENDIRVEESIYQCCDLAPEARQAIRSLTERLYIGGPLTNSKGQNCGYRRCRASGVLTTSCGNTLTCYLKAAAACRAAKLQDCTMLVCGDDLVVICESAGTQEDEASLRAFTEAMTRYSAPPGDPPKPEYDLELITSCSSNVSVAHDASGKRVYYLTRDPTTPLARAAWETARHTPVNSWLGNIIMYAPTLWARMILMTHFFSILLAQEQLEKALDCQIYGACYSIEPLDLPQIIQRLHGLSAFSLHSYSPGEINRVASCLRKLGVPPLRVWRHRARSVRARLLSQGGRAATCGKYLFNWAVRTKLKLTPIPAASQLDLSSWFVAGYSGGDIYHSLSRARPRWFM
# ASSAY_OVERVIEW: Modified HCV NS5B RdRp enzyme assay (preincubation protocol)
# Method: HCV NS5B RdRp cloning, expression, and purification. The cDNA encoding the NS5B protein of HCV, genotype 1b, was cloned into the pET21a expression vector. The protein was expressed with an 18 amino acid C-terminal truncation to enhance the solubility. […] Standard HCVNS5B RdRp enzyme assay. […] Plates were read on a Packard Top Count NXT after >1 hr incubation at room temperature. […] IC50 values for compounds were determined using seven different [I]. […]
pIC50: −log10 of the molar value.

Q: What does the record list as pIC50 for COc1ccc2c(c1)C1CC1(N)Cn1c-2c(C2CCCCC2)c2ccc(C(=O)NS(=O)(=O)N(C)C)cc21 (stereo not drawn) ?
Ans: 6.00 to 7.70

Q: Input COc1ccc2c(c1)C1CC1(NC(=O)OC(C)(C)C)Cn1c-2c(C2CCCCC2)c2ccc(C(=O)NS(=O)(=O)N(C)C)cc21 (stereo not drawn)
Ans: 6.00 to 7.70

Q: Input COC(=O)c1ccc2c(C3CCCCC3)c3n(c2c1)CC1(NC(=O)N2CCOCC2)CC1c1cc(OC)ccc1-3 (stereo not drawn)
Ans: 6.00 to 7.70
